All figures here come from PubChem BioAssay AID1963831.

Tested on: 889142-216-R-J1-PDC complex spheroid viability
assay-details: Anticancer human tumor 889142-216-R-J1-PDC patient-derived bladder carcinoma cell line growth inhibition [POLQ]
stated-conditions: second compound 0.1 µM; first compound 0.316 µM; stronger effect = lower value
Procedure: Multicellular complex tumor spheroid response to Polymerase (POL) inhibitors (novobiocin, ART-558, RP6685) in combination with a variety of drugs and investigational agents in selected tumor cell lines The POL inhibitors (novobiocin, ART-558, and RP6685) were evaluated both individually and in combination with standard of care and investigational anticancer small molecules within a complex spheroid model of solid tumors. . […]
measured-metric: viability, T/C (%)
The reply should contain only the number, in %.

Below, each entry is followed by its recorded viability, T/C result.
{"compound": "O=c1[nH]cc(F)c(=O)[nH]1 + Cc1cccc(N(C)C(=O)C2C(O)CCN2c2nc(C)cc(C(F)(F)F)c2C#N)c1", "viability, T/C [%]": 75.9}
{"compound": "CCc1c2c(nc3ccc(O)cc13)-c1cc3c(c(=O)n1C2)COC(=O)[C@]3(O)CC + Cc1cccc(N(C)C(=O)C2C(O)CCN2c2nc(C)cc(C(F)(F)F)c2C#N)c1", "viability, T/C [%]": 28.4}

Consider the compound CCc1cc2c(N3CCc4c(cc(Cn5ccnc5)cc4-c4cn(C)nc4C(F)(F)F)C3=O)cc(C)nc2c(OC)n1 + COC1C(OC(N)=O)C(O)C(Oc2ccc3c(O)c(NC(=O)c4ccc(O)c(CC=C(C)C)c4)c(=O)oc3c2C)OC1(C)C . State its measured viability, T/C.
101

---

Tested on: 889142-216-R-J1-PDC complex spheroid viability
assay-details: Anticancer human tumor 889142-216-R-J1-PDC cell line growth inhibition [POLQ];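 note: spheroids exposed to compounds for seven days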;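 for viability, T/C: 100% = DMSO vehicle control viability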
stated-conditions: second compound 3.16 µM; first compound 0.1 µM; stronger effect = lower value
Define the label as yes when viability, T/C is strictly less than 80% and as no in all remaining cases.

{"molecule": "COc1cccc2c1C(=O)c1c(O)c3c(c(O)c1C2=O)CC(O)(C(=O)CO)CC3OC1CC(N)C(O)C(C)O1 (stereo not given) + Cc1cccc(N(C)C(=O)C2C(O)CCN2c2nc(C)cc(C(F)(F)F)c2C#N)c1", "system-tested": "889142-216-R-J1-PDC complex spheroid viability", "qualitative-label": "yes"}

Hi there! Is viability, T/C for CCc1cc2c(N3CCc4c(cc(Cn5ccnc5)cc4-c4cn(C)nc4C(F)(F)F)C3=O)cc(C)nc2c(OC)n1 + Nc1ccc(C#CCN(C(=O)Cc2ncc(C(F)(F)F)cc2C(F)(F)F)c2ccc(F)cc2)nn1 below 80%, do you know?
no

Please let me know if CCc1cc2c(N3CCc4c(cc(Cn5ccnc5)cc4-c4cn(C)nc4C(F)(F)F)C3=O)cc(C)nc2c(OC)n1 + COC1C(OC(N)=O)C(O)C(Oc2ccc3c(O)c(NC(=O)c4ccc(O)c(CC=C(C)C)c4)c(=O)oc3c2C)OC1(C)C shows viability, T/C below 80%.
no

API: query returns whether the molecule falls strictly under 80% in viability, T/C. Query: COc1cccc2c1C(=O)c1c(O)c3c(c(O)c1C2=O)CC(O)(C(=O)CO)CC3OC1CC(N)C(O)C(C)O1 (stereo not given) + COC1C(OC(N)=O)C(O)C(Oc2ccc3c(O)c(NC(=O)c4ccc(O)c(CC=C(C)C)c4)c(=O)oc3c2C)OC1(C)C
yes

---

System: 889142-216-R-J1-PDC complex spheroid viability
assay-details: Anticancer human tumor 889142-216-R-J1-PDC cell line growth inhibition [POLQ]; active means viability on the fitted dose curve at most 10% of control; inactive means the rest;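 note: spheroids exposed to compounds for seven days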
stated-conditions: second compound 1 µM; first compound 3.16 µM
Assign a class; possible classes are 1 = active, 0 = inactive

{"compound": "COc1cccc2c1C(=O)c1c(O)c3c(c(O)c1C2=O)CC(O)(C(=O)CO)CC3OC1CC(N)C(O)C(C)O1 (stereo not given) + Cc1cccc(N(C)C(=O)C2C(O)CCN2c2nc(C)cc(C(F)(F)F)c2C#N)c1", "system-tested": "889142-216-R-J1-PDC complex spheroid viability", "qualitative-label": 1}
{"compound": "CCc1cc2c(N3CCc4c(cc(Cn5ccnc5)cc4-c4cn(C)nc4C(F)(F)F)C3=O)cc(C)nc2c(OC)n1 + COC1C(OC(N)=O)C(O)C(Oc2ccc3c(O)c(NC(=O)c4ccc(O)c(CC=C(C)C)c4)c(=O)oc3c2C)OC1(C)C", "system-tested": "889142-216-R-J1-PDC complex spheroid viability", "qualitative-label": 0}
{"compound": "O=C(Nc1ccc(O)c(NS(=O)(=O)c2ccc(F)cc2)c1)c1ccc(-c2ccccc2)cc1 + Cc1cccc(N(C)C(=O)C2C(O)CCN2c2nc(C)cc(C(F)(F)F)c2C#N)c1", "system-tested": "889142-216-R-J1-PDC complex spheroid viability", "qualitative-label": 0}
{"compound": "CC1COCCN1c1cc(-c2ccnn2C)c2ccnc(-c3ccn[nH]3)c2n1 (stereo not given) + Cc1cccc(N(C)C(=O)C2C(O)CCN2c2nc(C)cc(C(F)(F)F)c2C#N)c1", "system-tested": "889142-216-R-J1-PDC complex spheroid viability", "qualitative-label": 0}

Continue with the next compound.
Hey, what did the test say about CCc1cc2c(N3CCc4c(cc(Cn5ccnc5)cc4-c4cn(C)nc4C(F)(F)F)C3=O)cc(C)nc2c(OC)n1 + Nc1ccc(C#CCN(C(=O)Cc2ncc(C(F)(F)F)cc2C(F)(F)F)c2ccc(F)cc2)nn1 ?
0

---

Tested on: 889142-216-R-J1-PDC complex spheroid viability
assay-details: Anticancer human tumor 889142-216-R-J1-PDC cell line growth inhibition [POLQ];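 note: spheroids exposed to compounds for seven days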;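 for viability, T/C: 100% = DMSO vehicle control viability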
stated-conditions: second compound 1 µM; first compound 0.1 µM; stronger effect = lower value
measured-metric: viability, T/C (%)
Kindly answer with a numeric value in %, unit omitted.

Example entries begin here.
{"compound": "O=C(c1cc(Cc2n[nH]c(=O)c3ccccc23)ccc1F)N1CCN(C(=O)C2CC2)CC1 + Nc1ccc(C#CCN(C(=O)Cc2ncc(C(F)(F)F)cc2C(F)(F)F)c2ccc(F)cc2)nn1", "viability, T/C, %": 113}
{"compound": "CCc1c2c(nc3ccc(O)cc13)-c1cc3c(c(=O)n1C2)COC(=O)[C@]3(O)CC + Cc1cccc(N(C)C(=O)C2C(O)CCN2c2nc(C)cc(C(F)(F)F)c2C#N)c1", "viability, T/C, %": 35.3}

Field: next compound
Quote viability, T/C reported for CC1COCCN1c1cc(C2(S(C)(=N)=O)CC2)nc(-c2ccnc3[nH]ccc23)n1 (stereo not drawn) + Nc1ccc(C#CCN(C(=O)Cc2ncc(C(F)(F)F)cc2C(F)(F)F)c2ccc(F)cc2)nn1 please.
79.2

---

Tested on: 889142-216-R-J1-PDC complex spheroid viability
assay-details: Anticancer human tumor 889142-216-R-J1-PDC cell line growth inhibition [POLQ];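 note: spheroids exposed to compounds for seven days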
stated-conditions: curve of first compound; second compound 0.1 µM
# pIC50 values compiled below
Interpret pIC50 as the negative base-10 log of the concentration measured in mol/L.

{"molecule": "CCCS(=O)(=O)Nc1ccc(F)c(C(=O)c2c[nH]c3ncc(-c4ccc(Cl)cc4)cc23)c1F + Nc1ccc(C#CCN(C(=O)Cc2ncc(C(F)(F)F)cc2C(F)(F)F)c2ccc(F)cc2)nn1", "pIC50": 5.14}

Now consider a different molecule.
Provide measured pIC50 value, entry: CC(C)n1c(=O)n(C)c2cnc3cc(F)c(-c4ccc(OCCCN5CCCCC5)nc4)cc3c21 + Cc1cccc(N(C)C(=O)C2C(O)CCN2c2nc(C)cc(C(F)(F)F)c2C#N)c1
5.44

---

Quick reference for viability, T/C among some compounds
Tested on: 889142-216-R-J1-PDC complex spheroid viability
assay-details: Anticancer human tumor 889142-216-R-J1-PDC cell line growth inhibition [POLQ];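 note: spheroids exposed to compounds for seven days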;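 for viability, T/C: 100% = DMSO vehicle control viability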
stated-conditions: second compound 10 µM; first compound 0.316 µM; stronger effect = lower value
Protocol: Multicellular complex tumor spheroid response to Polymerase (POL) inhibitors (novobiocin, ART-558, RP6685) in combination with a variety of drugs and investigational agents in selected tumor cell lines The POL inhibitors (novobiocin, ART-558, and RP6685) were evaluated both individually and in combination with standard of care and investigational anticancer small molecules within a complex spheroid model of solid tumors. . […]
Provide only the numeric value, understood in %.

{"compound": "CC1COCCN1c1cc(-c2ccnn2C)c2ccnc(-c3ccn[nH]3)c2n1 (stereo not given) + Cc1cccc(N(C)C(=O)C2C(O)CCN2c2nc(C)cc(C(F)(F)F)c2C#N)c1", "system-tested": "889142-216-R-J1-PDC complex spheroid viability", "viability, T/C / %": 40.8}

Let me know recorded viability, T/C for C#Cc1c(F)ccc2cc(O)cc(-c3ncc4c(N5CC6CCC(C5)N6)nc(OCC56CCCN5CC(F)C6)nc4c3F)c12 (stereo not given) + Cc1cccc(N(C)C(=O)C2C(O)CCN2c2nc(C)cc(C(F)(F)F)c2C#N)c1 , thanks.
65.8

Answer with reported viability, T/C of COc1cccc(OCCCN)c1-c1cc(Nc2cnc(C#N)cn2)n[nH]1 + Nc1ccc(C#CCN(C(=O)Cc2ncc(C(F)(F)F)cc2C(F)(F)F)c2ccc(F)cc2)nn1
61
